The measured values listed here are drawn from ChEMBL document CHEMBL1134812.

# STUDY SYSTEM: UniProt:Q95136
# Sequence (Q95136 whole entry): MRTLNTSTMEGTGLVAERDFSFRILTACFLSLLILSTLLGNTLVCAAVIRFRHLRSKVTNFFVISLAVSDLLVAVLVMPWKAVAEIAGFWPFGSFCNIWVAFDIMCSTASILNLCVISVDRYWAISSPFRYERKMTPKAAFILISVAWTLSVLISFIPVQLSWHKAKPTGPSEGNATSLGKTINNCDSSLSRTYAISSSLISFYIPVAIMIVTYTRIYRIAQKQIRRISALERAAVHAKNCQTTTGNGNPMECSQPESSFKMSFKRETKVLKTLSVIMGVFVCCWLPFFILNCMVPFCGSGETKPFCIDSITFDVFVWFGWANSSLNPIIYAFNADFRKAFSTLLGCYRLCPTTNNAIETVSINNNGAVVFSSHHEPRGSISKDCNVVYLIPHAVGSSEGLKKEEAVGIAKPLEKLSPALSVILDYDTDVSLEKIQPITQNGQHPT
# EXPERIMENT SUMMARY: In vitro for its ability to displace [3H]- SCH 23390 from Dopamine receptor D1 in bovine striatal membrane […]
MEASURED QUANTITY: pKi
FYI, pKi means -log10 of a concentration in mol per litre.

Query (compound): c1ccc(C2=N[C@@H](CN3CCN(c4ccccc4)CC3)CO2)cc1 (stereo in doubt) ; field requested: pKi
5.40

Query (compound): C[C@@H]1OC(c2ccccc2)=N[C@H]1CN1CCN(c2ccccc2)CC1 (stereo in doubt) ; field requested: pKi
5.70

Query (compound): c1ccc(C2=NC[C@H](CN3CCN(c4ccccc4)CC3)N2)cc1 (stereo in doubt; 4e) ; field requested: pKi
4.92

* * *

# STUDY SYSTEM: D(2) dopamine receptor (Homo sapiens, UniProt P14416)
# Sequence (P14416 whole entry): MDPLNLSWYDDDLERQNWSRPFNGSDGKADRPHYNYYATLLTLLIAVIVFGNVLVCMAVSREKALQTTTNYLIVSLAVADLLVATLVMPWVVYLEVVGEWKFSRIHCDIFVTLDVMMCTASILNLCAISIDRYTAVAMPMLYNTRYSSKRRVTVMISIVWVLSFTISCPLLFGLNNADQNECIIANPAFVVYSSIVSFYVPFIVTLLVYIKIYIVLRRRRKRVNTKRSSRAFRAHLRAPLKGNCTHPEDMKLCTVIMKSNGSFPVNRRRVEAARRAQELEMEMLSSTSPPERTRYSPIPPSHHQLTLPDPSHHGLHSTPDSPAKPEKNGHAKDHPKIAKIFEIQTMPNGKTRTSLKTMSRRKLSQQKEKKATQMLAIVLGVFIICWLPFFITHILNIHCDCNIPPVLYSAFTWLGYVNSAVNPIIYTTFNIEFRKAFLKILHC
# EXPERIMENT SUMMARY: In vitro for its ability to displace [3H]- spiperone from cloned human dopamine D2 long receptor expressed in CHO cells
# Assay type: cell-based
MEASURED QUANTITY: Ki (nM)
Lab book: enter the figure in nM, no units written.

Query (molecule): c1ccc(C2=N[C@@H](CN3CCN(c4ccccc4)CC3)CO2)cc1 (stereo in doubt; 4a) ; field requested: Ki
1700

Query (molecule): COc1ccc(Br)cc1C1=N[C@@H](CN2CCN(c3ccccc3)CC2)[C@@H](C)O1 (stereo in doubt; 4d) ; field requested: Ki
3700

Query (molecule): COc1ccc(Br)cc1C1=N[C@@H](CN2CCN(c3ccccc3)CC2)CO1 (stereo in doubt) ; field requested: Ki
400

* * *

Provide the reported pKi of each item.
# STUDY SYSTEM: D(2) dopamine receptor (Homo sapiens)
# EXPERIMENT SUMMARY: In vitro for its ability to displace [3H]- spiperone from cloned human dopamine D2 short receptor expressed in CHO cells
# Type: cell-based
FYI, pKi means -log10 of a concentration in mol per litre.

Query (molecule): C[C@@H]1OC(c2ccccc2)=N[C@H]1CN1CCN(c2ccccc2)CC1 (stereo in doubt) ; field requested: pKi
6.49

Query (molecule): c1ccc(C2=N[C@@H](CN3CCN(c4ccccc4)CC3)CO2)cc1 (stereo in doubt) ; field requested: pKi
6.48

Query (molecule): c1ccc(C2=NC[C@H](CN3CCN(c4ccccc4)CC3)N2)cc1 (stereo in doubt; 4e) ; field requested: pKi
4.96

Query (molecule): c1ccc(C2=N[C@@H](CN3CCN(c4ccccc4)CC3)CS2)cc1 (stereo in doubt) ; field requested: pKi
6.14

Query (molecule): c1ccc(C2=N[C@@H](CN3CCN(c4ccccc4)CC3)CS2)cc1 (stereo in doubt; 4f) ; field requested: pKi
5.96

Query (molecule): COc1ccc(Br)cc1C1=N[C@@H](CN2CCN(c3ccccc3)CC2)[C@@H](C)O1 (stereo in doubt; 4d) ; field requested: pKi
5.62

Query (molecule): COc1ccc(Br)cc1C1=N[C@@H](CN2CCN(c3ccccc3)CC2)CO1 (stereo in doubt) ; field requested: pKi
6.96

Query (molecule): COc1ccc(Br)cc1C1=N[C@@H](CN2CCN(c3ccccc3)CC2)[C@@H](C)O1 (stereo in doubt) ; field requested: pKi
4.74
